Target: T1, CD40 ligand (CD40L or CD154) (UniProt P29965 113-261, limits assumed, biotinylated ('biotinylated phospho-CD40L') in the proximity assay as described in paragraph 342)
T1 construct: Species never stated; also called soluble CD40L; CD40L target protein
T1 sequence (looked up): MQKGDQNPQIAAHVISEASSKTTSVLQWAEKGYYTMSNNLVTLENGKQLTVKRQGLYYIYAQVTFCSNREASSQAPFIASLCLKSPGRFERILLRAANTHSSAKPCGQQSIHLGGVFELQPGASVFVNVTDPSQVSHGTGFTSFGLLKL
Assay: Alphascreen proximity assay, inhibition of CD40L-CD40 interaction
MEASUREMENT_LABEL: EC50
In your response, put the unit directly after the numeric value.

Incoming: What does the record list as EC50 for CHPFSIKNVFSIWNFFSVY (a cysteine-containing linker (8-amino-3,6-dioxaoctanoyl type, FIG. 1b) may stand between Cys and the peptide; not stated for this molecule, also called cysteine-containing derivative of M1-6S) [Cys_M1_6S] ?
Outgoing: 0.265 nM
